test: yeast display, Sf9 membrane polyspecificity reagent, FACS + sequencing; frameworks hold sequencing errors
MEASURED ATTRIBUTE: polyreactivity (PSR sort gate)

Solved entries (count: 4):
{"RESIDUE CODES": "QVQLVESVGGLDQAGGSLRLSCAASGRIFRQNAMGWYRQAPGKERELVAAISRSGGSTYYADSVKGRFTISRDNAKNTVYLQMNSLKPEDTAVYYCNRDYQSQRTYPRRYDYCGQGTQVTVSS", "polyreactivity (PSR sort gate)": "low polyreactivity"}
{"RESIDUE CODES": "QVQLVESGGGLVQAGCSLRLSCAASGRTFGTYTKGWYRQAPGKERELVAAIYTRDGSTYYADSVKGRFSISRDNAKNTVYLQMNSLKPDDTAFYYCNAVVRYYDWGYWDYDYWGQGTQVTVSS", "polyreactivity (PSR sort gate)": "low polyreactivity"}
{"RESIDUE CODES": "QVQLVESGGGLVQAGGSLRLSSAASGGIFSRYGMGSYRQAPGKERELVAAITWSGGRTYYADSVKGRFTISRDNAKNTVYLQMNSLKPEETAVYYCAALETSFSSVGYEYWGQGTQVTVSS", "polyreactivity (PSR sort gate)": "high polyreactivity"}
{"RESIDUE CODES": "QVQLVESGGGLVQAGAILRLICAASGRIFYRYAMGWYRQAPGKERELVAAISSGGGRTYYADSVKGRFTLSRDNAKNTVYLQMNSLKPEDTAVYYCAASGNSYEQTGGYWGQGTQVTVSS", "polyreactivity (PSR sort gate)": "high polyreactivity"}

Sample "QVQLVESGGGLDQAGGSLRLSCAASGSIFYFYTMGWYRQAPGKEREFVAAINGIGGSTYYADSVKGRFTISRDNAKNTVYLQMNRLKPEDTAVYYCAADAPWFKRNARKYNYWGQGTQVTVSS" — what was its polyreactivity (PSR sort gate)?
low polyreactivity

---

assay: yeast display, Sf9 membrane polyspecificity reagent, FACS + sequencing; frameworks hold sequencing errors
MEASURED ATTRIBUTE: polyreactivity (PSR sort gate)

Reference set, count: 4
{"RESIDUE CODES": "QVQLVESGGGLVQAGGSLRLTCAASGRIFGSYAMGWYRQAPGKERELVAAITRRGGSTYYADSVKGRFTISRDNAKNTVYLQMNSLKPEDTAVYYCAPERTSAYDYWGQGTQVTVSS", "MEASURED": "high polyreactivity"}
{"RESIDUE CODES": "QVQLVESGGGLVQAGGSLRLSCAASGGTFISYAMGWYRQAPGKERELVAAISRGGSSTYYADSVKGRFTISRDNAKNTVYLQMNSLKPEDTAVYYCNKAYHRRDSEFGYWGQGTQVTVSS", "MEASURED": "high polyreactivity"}
{"RESIDUE CODES": "QVQLVESGGGLVQAGGSLRLSCAASGSTFESNAMGWYRQAPGKERELVAAISRGRTNYADSVKGRFTISRDNAKNTVYLQMNSLKPEDTAVYYCAADGLSNVRQMDYWGQGTQVTVSS", "MEASURED": "low polyreactivity"}
{"RESIDUE CODES": "QVQLVESGGGLVQAGGSLRLSCAASGSTFGSYAMRWYRQAPGKERELVAAITASGGSTYYADSVKGRFTISRDNAKNTVYLQMNSLKPEDTAVYYCAADTTYIPLSIEYDYWGQGTQVTVSS", "MEASURED": "low polyreactivity"}

Could you now look at the following sequence, please?
Quick check: polyreactivity (PSR sort gate) of "QVQLVESGGGLVQAGGSLRLSCAASGSTFPYYAMGWYRQAPGKERELVAAITSGGSTNYADSVKGRFTISRDNAKNTVYLQMNSLKPEDTAVYYCNADTTYLSDYVTFDYWGQGTQVTVSS" ?
low polyreactivity

Numbers sourced from the nanobody polyreactivity screen of Harvey et al. (2022).
